All values here come from ChEMBL document CHEMBL1201862.

Record form. Attribute: GI50. Fill in for each entry.
# System: KM12
# procedureDetails: NCI tumour cell line growth inhibition, 48 h
Active and inactive are the calls of the source. Rule as the data show it: active = GI50 up to about 1.1 µM and inactive = higher.

Check out these entries, answers already filled in.
>  <compound>
COC(=O)NC1C(C)OC(OC2C/C=C(/C)C3C=CC4C(OC5CC(OC6CC(OC7CC(O)C(O)C(C)O7)C(OC7CC(O)C(OC)C(C)O7)C(C)O6)C(O)C(C)O5)C(C)CC(C)C4C3(C)C(=O)C3=C(O)C4(CC(C)C(CO)=CC4/C=C\2C)OC3=O)CC1(C)[N+](=O)[O-] (centres undefined)

>  <GI50>
6.7 µM (inactive)

$$$$
>  <compound>
CC1Cc2cc(O)ccc2C2[C@@H]1C1CC[C@H](O)[C@@]1(C)C[C@@H]2O[N+](=O)[O-] (some centres undefined)

>  <GI50>
19.7 µM (inactive)

$$$$
>  <compound>
O=Cc1c(-c2ccccc2)nc2ccccc2c1O

>  <GI50>
30.3 µM (inactive)

$$$$
>  <compound>
Cc1nc(Nc2ccccc2Cl)sc1C(=O)CC(=O)C(N)=O

>  <GI50>
13.2 µM (inactive)

$$$$
>  <compound>
Cn1c(=O)c2c(nc(N)n2C2OC(CO)C(O)C2O)n(C)c1=O (centres undefined)

>  <GI50>
> 100 µM (inactive)

$$$$

// for each compound below, give its GI50
1. CC(C)=CC[C@]12CCN(C)[C@H]1N(S(=O)(=O)c1ccccc1)c1ccccc12
2. O=C1CSC(c2ccccc2)N1c1ccc(-n2c(-c3ccccc3)nc3ccccc3c2=O)cc1 (centres undefined)
3. CCOc1ccc(NC(=O)C(=O)Nn2c(N)nnc2N)cc1
4. COc1ccc(C(=C(I)c2ccccc2)c2ccc(OC)cc2)cc1
5. C=CCN1C(=O)C[C@H](Cc2ccccc2)NC(=O)C[C@H](Cc2ccccc2)N(CC=C)C(=O)C[C@H](Cc2ccccc2)NC(=O)C[C@@H]1Cc1ccccc1
6. N#Cc1nc(C2CC2)oc1N
7. COC(=O)N/N=C(\C)C(CN(C)C)C(c1ccccc1)c1c(O)c2ccccc2oc1=O (centres undefined)

# output
26.1 µM (inactive)
41.1 µM (inactive)
> 100 µM (inactive)
> 100 µM (inactive)
26 µM (inactive)
25.7 µM (inactive)
> 100 µM (inactive)

// for each compound below, give its GI50
1. CCCCC1(O)CC2CC1C(C)C2(C)C (centres undefined)
2. CC(=O)NC1C(O)C(O)C(CO)OC1n1ncc(=O)[nH]c1=O (centres undefined)
3. Cc1ccc(/N=N/c2c(O)ccc3cc(S(=O)(=O)O)ccc23)c(C)c1

# output
> 100 µM (inactive)
> 100 µM (inactive)
> 100 µM (inactive)

// for each compound below, give its GI50
1. COc1cc(C2c3cc4c(cc3OC(N3CCOCC3)C2C)OCO4)cc(OC)c1OC(C)=O (centres undefined)
2. CC1=NN(c2cccc(Cl)c2)C2(C1=C/C=C/c1ccccc1)C(Cl)C(=O)N2c1nc2ccccc2s1 (centres undefined)
3. CC(=O)OCCOCn1c2c(c(=S)[nH]c1=O)CCC2
4. NC(=S)N/N=C1\CCCCc2ccccc21

# output
["5.35 µM (inactive)", "23.8 µM (inactive)", "> 100 µM (inactive)", "> 10 µM (inactive)"]

###

# System: OVCAR-8
# procedureDetails: NCI tumour cell line growth inhibition, 48 h
Active and inactive are the calls of the source. Cut-off read from the data, not from the text of the source: active = GI50 up to about 1.1 µM and inactive = higher.
Record form. Attribute: GI50. Fill in for each entry.

>  <compound>
CC(=O)Oc1ccc(/C=C/C(=O)O[C@@H](C)[C@H](C)OC(=O)/C=C/c2ccc(OC(C)=O)c(OC(C)=O)c2)cc1OC(C)=O

>  <GI50>
11.5 µM (inactive)

$$$$
>  <compound>
C#C[C@]1(O)CC[C@H]2[C@@H]3CCc4cc(OC(=O)c5cccc6cc7ccccc7nc56)ccc4[C@H]3CC[C@@]21C

>  <GI50>
40.8 µM (inactive)

$$$$

// for each compound below, give its GI50
1. Cc1ccc(S(=O)(=O)n2cc(/C=C/C#N)c(/C=C/C#N)c2)cc1
2. CC(O)C1CC1(CO)CNc1cc(Cl)nc(N)n1 (stereo unspecified)

# output
1. > 100 µM (inactive)
2. > 100 µM (inactive)

###

# Tested on: HCT-116
# procedureDetails: NCI tumour cell line growth inhibition, 48 h
Active and inactive are the calls of the source. No stated cut-off is given here; in the data, active = GI50 up to about 1.1 µM and inactive = higher.
Would you mind answering with one of these outcomes? active, inactive

Some solved cases for reference:
>  <compound>
Cc1nc(=O)[nH]c2[nH][nH]c(=O)c12

>  <class>
inactive

$$$$
>  <compound>
O=S(=O)(c1ccc2ccccc2c1)N1CCN(S(=O)(=O)c2ccc3ccccc3c2)CC1

>  <class>
inactive

$$$$
>  <compound>
N#CC1(Cc2ccccc2Cl)c2ccccc2C=CN1C(=O)c1ccccc1 (stereo not given)

>  <class>
inactive

$$$$
>  <compound>
CCOc1ccccc1/C=C(/C#N)C(N)=O

>  <class>
inactive

$$$$
>  <compound>
c1cc(-c2csc(-c3ccsc3)c2)cs1

>  <class>
inactive

$$$$
>  <compound>
CCOC(=O)c1nc2ccc(C(F)(F)F)cc2nc1Oc1cc(OC)c(OC)c(OC)c1

>  <class>
inactive

$$$$
>  <compound>
Clc1cccc(Cl)c1C1SCc2nc3ncccc3n21 (stereo not given)

>  <class>
inactive

$$$$
>  <compound>
COc1c(-c2ccc(F)cc2)oc2c(CC(=O)O)cccc2c1=O

>  <class>
inactive

$$$$
>  <compound>
O=C1SC(c2ccccc2)(c2ccccc2)c2ccccc21

>  <class>
inactive

$$$$
>  <compound>
c1ccc(C2=NCCN2)c(C2=NCCN2)c1

>  <class>
inactive

$$$$

# input Record lookup: outcome of this test for NC(=O)c1cccc(C2OC(COP(=O)(O)O)C(O)C2O)c1 (stereo not given) ?
# output inactive

# input Record lookup: outcome of this test for CCOC(=O)c1cc(C2(O)CCN(CC(C)CC)C2=O)c(-c2cc(C)no2)[nH]1 (stereo not given) ?
# output inactive

# input Record lookup: outcome of this test for Cc1c([N+](=O)[O-])ccc2c(NCCCN(C)C)ccnc12 ?
# output inactive

# input Record lookup: outcome of this test for Cc1cc(N(CC(C)Br)CC(C)Br)ccc1/N=N/c1ccccc1C(=O)O (stereo not given) ?
# output inactive

# input Record lookup: outcome of this test for C=Cc1nc2nnc(CCCCCCCCc3nnc4nc(C=C)[nH]n34)n2[nH]1 ?
# output inactive

# input Record lookup: outcome of this test for c1ccc(-c2cccc(-c3ccccn3)n2)nc1 ?
# output active

# input Record lookup: outcome of this test for CSC(SC)=C(C#N)C(=O)Nc1cccc(Cl)c1 ?
# output inactive

# input Record lookup: outcome of this test for COc1cc(/C=C/C(=O)CC(=O)/C=C/c2ccc(OC(=O)CCCCC3CCSS3)c(OC)c2)ccc1OC(=O)CCCCC1CCSS1 (stereo not given) ?
# output inactive

# input Record lookup: outcome of this test for CCOC(=O)NC1CN2CCC1CC2 (stereo not given) ?
# output inactive

# input Record lookup: outcome of this test for CC(C)(CN1CCCCC1)C(=O)/C=C/c1ccccc1 ?
# output inactive

# input Record lookup: outcome of this test for Cc1ccccc1NC(=O)C(=O)C(c1cnc2ccc([N+](=O)[O-])cc2n1)[N+](=O)[O-] (stereo not given) ?
# output inactive

###

# Test system: Hs-578T
# procedureDetails: NCI tumour cell line growth inhibition, 48 h
Active and inactive are the calls of the source. No stated cut-off is given here; in the data, active = GI50 up to about 1.1 µM and inactive = higher.
Would you mind answering with one of these outcomes? Y (active), N (inactive)

# input Record lookup: outcome of this test for CC(C)(C)c1cc(C=C(C#N)C#N)cc(C(C)(C)C)c1O ?
# output Y

# input Record lookup: outcome of this test for O=C(O)c1nc2ccc(C(F)(F)F)cc2nc1Nc1ccc(F)cc1 ?
# output N

# input Record lookup: outcome of this test for Cc1cc(C)c(S(=O)(=O)N(CCCN)OCCCON(CCCN)S(=O)(=O)c2c(C)cc(C)cc2C)c(C)c1 ?
# output N

# input Record lookup: outcome of this test for [N-]=[N+]=NC(c1cn(C2CC(O)C(CO)O2)c(=O)[nH]c1=O)C(Cl)I (stereo not given) ?
# output N

# input Record lookup: outcome of this test for O=S1(=O)OCCOS(=O)(=O)C1F ?
# output N

###

# Test system: HT-29
# procedureDetails: NCI tumour cell line growth inhibition, 48 h
Active and inactive are the calls of the source. Cut-off read from the data, not from the text of the source: active = GI50 up to about 1.1 µM and inactive = higher.
Would you mind answering with one of these outcomes? y = active, n = inactive

Some solved cases for reference:
>  <molecule>
CC1(C)C2C=CC1C(=O)CC2 (configuration not stated)

>  <systemTested>
HT-29

>  <class>
n

$$$$
>  <molecule>
C(#CC1(Nc2ccccc2)CCN(Cc2ccccc2)CC1)C1(Nc2ccccc2)CCN(Cc2ccccc2)CC1

>  <systemTested>
HT-29

>  <class>
n

$$$$
>  <molecule>
O=c1c2ccccc2n2nnc3ccc(NCCNCCO)c1c32

>  <systemTested>
HT-29

>  <class>
y

$$$$
>  <molecule>
C#CCOCn1cnc2ncnc(N)c21

>  <systemTested>
HT-29

>  <class>
n

$$$$
>  <molecule>
COc1ccc(C(=O)O[C@H]2CC[C@@]3(C)[C@@H]4CC[C@H]5[C@]6(O)C[C@H](O)[C@@]7(O)[C@@H](CN8C[C@@H](C)CC[C@H]8[C@@]7(C)O)[C@]6(O)C[C@@]53OC24O)cc1OC

>  <systemTested>
HT-29

>  <class>
n

$$$$
>  <molecule>
CCCCCCCCCCCCCCC(O)C1CCC(C(O)CCC(O)CCCCCC(O)CC2=CC(C)OC2=O)O1 (configuration not stated)

>  <systemTested>
HT-29

>  <class>
n

$$$$
>  <molecule>
O=C(C#Cc1ccccc1)N1CCCCC1

>  <systemTested>
HT-29

>  <class>
n

$$$$
>  <molecule>
COc1cc2c(c(OC)c1OC)-c1ccc(SC)c(=O)cc1[C@@H](NC(=O)c1ccc(OC(C)=O)cc1)CC2

>  <systemTested>
HT-29

>  <class>
y

$$$$

# input Record lookup: outcome of this test for CC(C)=CC[C@]12CCN(C)[C@H]1N(S(=O)(=O)c1ccccc1)c1ccccc12 ?
# output n

# input Record lookup: outcome of this test for Cn1c(=O)nc2n(-c3ccc(O)cc3)c3ccccc3nc-2c1=O ?
# output n

# input Record lookup: outcome of this test for N#C/C1=C(\N)CCSSSC1 ?
# output n

# input Record lookup: outcome of this test for CC(C)(C)NNC(=O)CCn1[nH]c(=O)c(Cl)c(Cl)c1=O ?
# output n

# input Record lookup: outcome of this test for CC(C)=CCN1c2ccccc2NC(=O)CC1C (configuration not stated) ?
# output n

# input Record lookup: outcome of this test for C[C@]12CC[C@H](O)CC1=CC[C@@H]1[C@@H]2CC[C@]2(C)C(=N/N)/C(=N\O)C[C@@H]12 ?
# output n
